# Tgt: human SCD1 (Homo sapiens, UniProt O00767)
# Construct: expressed in transfected cells; host or cells: yeast strain with OLE1 deleted, plasmid-borne human SCD1 (selected in SD-Ura)
# Sequence (O00767 whole entry): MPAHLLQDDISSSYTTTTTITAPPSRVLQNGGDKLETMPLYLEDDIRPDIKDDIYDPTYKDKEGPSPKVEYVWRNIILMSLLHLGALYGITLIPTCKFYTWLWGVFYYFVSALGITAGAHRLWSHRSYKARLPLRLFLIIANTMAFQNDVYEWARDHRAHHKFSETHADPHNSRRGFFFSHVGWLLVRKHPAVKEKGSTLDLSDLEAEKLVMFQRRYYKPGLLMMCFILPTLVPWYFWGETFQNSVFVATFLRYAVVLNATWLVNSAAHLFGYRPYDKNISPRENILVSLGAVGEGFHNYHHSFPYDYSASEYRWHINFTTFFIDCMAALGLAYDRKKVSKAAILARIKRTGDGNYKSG
# Experimental Details: Growth inhibition of yeast strain expressing human SCD1 as sole desaturase (OLE1 deleted), OD600 readout
# Type: cell-based
# Recorded Conditions: yeast strain expressing human SCD1 as sole desaturase; growth (OD600) after 40 h at 30° C.; read-out: SCD1 IC50
Quantity: IC50

Some molecules with known IC50 results, for comparison:
CN1N=C(C(=O)Nc2ccc(Cc3cccc(C4CC4)c3)cn2)CCC1=O; > 45 µM
O=C(Nc1ccc(Nc2cccc(F)c2)cn1)c1ccc(=O)n(C2CC2)n1; > 45 µM
Cn1cc(-c2ccc(C(=O)NCc3cccc(F)c3)nc2)ccc1=O; > 45 µM

Query :: Could you tell me which IC50 is on file for Cn1nc(C(=O)Nc2ccc(OCc3cccc(Cl)c3)cn2)ccc1=O ?
Result :: > 45 µM

Query :: Could you tell me which IC50 is on file for CN1N=C(C(=O)Nc2ccc(OCc3cccc(Cl)c3)cn2)CCC1=O ?
Result :: > 45 µM

Query :: Could you tell me which IC50 is on file for N#Cc1ccc(C(=O)Nc2ccc(Cc3cccc(F)c3)cn2)nc1 [Compound 142] ?
Result :: > 45 µM

Query :: Could you tell me which IC50 is on file for Cn1nc(C(=O)Nc2ccc(Oc3cc(F)cc(Cl)c3)cn2)ccc1=O ?
Result :: > 45 µM

Query :: Could you tell me which IC50 is on file for Cn1nc(C(=O)Nc2ccc(COc3cc(Cl)cc(C#N)c3)cn2)ccc1=O ?
Result :: > 45 µM

Query :: Could you tell me which IC50 is on file for CCn1cc(C(=O)Nc2ccc(Cc3ccc(F)c(Cl)c3)cn2)ccc1=O ?
Result :: > 45 µM

---

# Tgt: human SCD5 (Homo sapiens)
# Construct: expressed in transfected cells; host or cells: yeast strain with OLE1 deleted, plasmid-borne human SCD5 (selected in SD-Ura)
# Experimental Details: Growth inhibition of yeast strain expressing human SCD5 as sole desaturase (OLE1 deleted), OD600 readout
# Format: cell-based
# Recorded Conditions: yeast strain expressing human SCD5 as sole desaturase; growth (OD600) after 40 h at 30° C.; read-out: SCD5 IC50
Reported IC50 values for a set of compounds
# number only, unit nM dropped from output

Some compounds with known IC50 results, for comparison:
CCn1ccc(C(=O)Nc2ccc(Cc3ccc(F)cc3)cn2)n1 [Compound 102]; 80
Cn1nc(C(=O)Nc2ccc(COc3ccccc3Cl)cn2)ccc1=O [Compound 615]; 79

Query :: Could you tell me which IC50 is on file for N#Cc1cnc(C(=O)Nc2ccc(Cc3cccc(F)c3)cn2)c(F)c1 [Compound 636] ?
Result :: 142

---

Reported IC50 values for a set of compounds
# Tgt: human SCD1 (Homo sapiens)
# Construct: expressed in transfected cells; host or cells: yeast strain with OLE1 deleted, plasmid-borne human SCD1 (selected in SD-Ura)
# Experimental Details: Growth inhibition of yeast strain expressing human SCD1 as sole desaturase (OLE1 deleted), OD600 readout
# Format: cell-based
# Recorded Conditions: yeast strain expressing human SCD1 as sole desaturase; growth (OD600) after 40 h at 30° C.; read-out: SCD1 IC50

Some compounds with known IC50 results, for comparison:
Cn1nc(NC(=O)c2ccc(Cc3cccc(Cl)c3)nn2)ccc1=O; > 45 µM
Cn1cc(NC(=O)c2ccc(Cc3cccc(Cl)c3)nn2)ccc1=O; > 45 µM

Now, please, on to the next compound.
Query :: Which measured IC50 belongs to CC(C)c1ccc(Cc2ccc(NC(=O)C3=NN(C)C(=O)CC3)nc2)cc1 , tested on human SCD1 (Homo sapiens)?
Result :: > 45 µM

---

# Tgt: human SCD1 (Homo sapiens)
# Construct: expressed in transfected cells; host or cells: yeast strain with OLE1 deleted, plasmid-borne human SCD1 (selected in SD-Ura)
# Experimental Details: Growth inhibition of yeast strain expressing human SCD1 as sole desaturase (OLE1 deleted), OD600 readout
# Type: cell-based
# Recorded Conditions: yeast strain expressing human SCD1 as sole desaturase; growth (OD600) after 40 h at 30° C.; read-out: SCD1 IC50
Quantity: pIC50
Here pIC50 is given on a logarithmic scale as minus log10 of the concentration in mol/L.

Cn1cc(NC(=O)c2ccc(COc3cccc(Cl)c3)cn2)ccc1=O; 5.34

Now, please, on to the next compound.
Query :: Could you tell me which pIC50 is on file for Cn1nc(NC(=O)N[C@H]2CC[C@@H](Cc3cccc(Cl)c3)CC2)ccc1=O ?
Result :: 4.90

---

# Tgt: human SCD5 (Homo sapiens)
# Construct: expressed in transfected cells; host or cells: yeast strain with OLE1 deleted, plasmid-borne human SCD5 (selected in SD-Ura)
# Experimental Details: Growth inhibition of yeast strain expressing human SCD5 as sole desaturase (OLE1 deleted), OD600 readout
# Assay type: cell-based
# Recorded Conditions: yeast strain expressing human SCD5 as sole desaturase; growth (OD600) after 40 h at 30° C.; read-out: SCD5 IC50
Reported IC50 values for a set of compounds

Some compounds with known IC50 results, for comparison:
CN1N=C(C(=O)Nc2ncc(Cc3ccccc3C#N)s2)CCC1=O [Compound 380]; > 45 µM
CN1N=C(CNc2ccc(Cc3cccc(F)c3)cn2)CCC1=O [Compound 397]; > 45 µM

Query :: Which measured IC50 belongs to CN1N=C(C(=O)Nc2ncc(Oc3ccccc3Cl)s2)CCC1=O [Compound 416] , tested on human SCD5 (Homo sapiens)?
Result :: > 45 µM

---

# Tgt: human SCD5 (Homo sapiens, UniProt Q86SK9)
# Construct: expressed in transfected cells; host or cells: yeast strain with OLE1 deleted, plasmid-borne human SCD5 (selected in SD-Ura)
# Experimental Details: Growth inhibition of yeast strain expressing human SCD5 as sole desaturase (OLE1 deleted), OD600 readout
# Type: cell-based
# Recorded Conditions: yeast strain expressing human SCD5 as sole desaturase; growth (OD600) after 40 h at 30° C.; read-out: SCD5 IC50
Quantity: IC50

Some compounds with known IC50 results, for comparison:
CN1N=C(C(=O)Nc2nc(Cc3ccc4ccccc4n3)cs2)CCC1=O; > 45 µM
CO[C@H]1C[C@@H](C(=O)Nc2ccc(Cc3cccc(F)c3)cn2)N(C(=O)OC(C)(C)C)C1; > 45 µM
Cn1nc(C(=O)N2CCC(Oc3cccc(Cl)c3)CC2)ccc1=O; > 45 µM
O=C(O)c1ccc(C(=O)Nc2ccc(Cc3cccc(Cl)c3)cn2)nn1; > 45 µM
CS(=O)(=O)c1ccc(C(=O)Nc2ccc(Cc3cccc(F)c3)cn2)cc1; > 45 µM

Query :: Could you tell me which IC50 is on file for O=C(Nc1ccc(Cc2cccc(Cl)c2)cn1)c1ccc2nccn2n1 ?
Result :: > 45 µM

Query :: Could you tell me which IC50 is on file for CN1N=C(C(=O)Nc2cnc(Cc3cccc(Cl)c3)nc2)CCC1=O ?
Result :: > 45 µM

---

# Tgt: human SCD1 (Homo sapiens)
# Construct: expressed in transfected cells; host or cells: yeast strain with OLE1 deleted, plasmid-borne human SCD1 (selected in SD-Ura)
# Experimental Details: Growth inhibition of yeast strain expressing human SCD1 as sole desaturase (OLE1 deleted), OD600 readout
# Format: cell-based
# Recorded Conditions: yeast strain expressing human SCD1 as sole desaturase; growth (OD600) after 40 h at 30° C.; read-out: SCD1 IC50
pIC50: −log10 of the molar value.
Quantity: pIC50

Some compounds with known pIC50 results, for comparison:
Cc1cncc(Cc2ccc(NC(=O)C3=NN(C)C(=O)CC3)nc2)c1; < 4.35
COc1ccc(C(=O)Nc2ncc(Cc3cccc(F)c3)s2)nn1; < 4.35
N#Cc1cnc(C(=O)Nc2ccc(Cc3ccc(F)c(F)c3)cn2)nc1; < 4.35

Query :: Could you tell me which pIC50 is on file for CN1CC(C(=O)Nc2ncc(Cc3cccc(F)c3)s2)CC1=O (centres unmarked) ?
Result :: < 4.35

Query :: Could you tell me which pIC50 is on file for CN1N=C(C(=O)Nc2cc(Cc3cccc(Cl)c3)cnc2N)CCC1=O ?
Result :: < 4.35

---

# Tgt: human SCD5 (Homo sapiens, UniProt Q86SK9)
# Construct: expressed in transfected cells; host or cells: yeast strain with OLE1 deleted, plasmid-borne human SCD5 (selected in SD-Ura)
# Sequence (Q86SK9 1-330): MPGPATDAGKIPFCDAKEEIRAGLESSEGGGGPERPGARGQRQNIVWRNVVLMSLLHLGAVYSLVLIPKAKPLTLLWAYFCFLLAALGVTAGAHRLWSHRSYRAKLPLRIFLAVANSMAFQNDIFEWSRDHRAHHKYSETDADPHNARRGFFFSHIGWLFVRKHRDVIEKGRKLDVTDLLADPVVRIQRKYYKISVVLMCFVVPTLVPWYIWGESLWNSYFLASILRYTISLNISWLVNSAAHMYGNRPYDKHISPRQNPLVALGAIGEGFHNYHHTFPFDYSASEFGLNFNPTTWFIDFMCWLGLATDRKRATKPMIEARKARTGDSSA
# Experimental Details: Growth inhibition of yeast strain expressing human SCD5 as sole desaturase (OLE1 deleted), OD600 readout
# Format: cell-based
# Recorded Conditions: yeast strain expressing human SCD5 as sole desaturase; growth (OD600) after 40 h at 30° C.; read-out: SCD5 IC50
Reported IC50 values for a set of compounds
# number only, unit nM dropped from output

CC1CC(C(=O)Nc2ccc(Cc3cccc(F)c3)cn2)=NN(C)C1=O (centres unmarked) [Compound 118]; 440
Cn1nccc(NC(=O)c2ccc(Cc3cccc(Cl)c3)cn2)c1=O [Compound 363]; 130
Cn1nc(C(=O)Nc2ccc(Cc3ccc(F)c(F)c3)cn2)cc1O [Compound 324]; 1130
Cn1nc(C(=O)Nc2ccc(Oc3cccc(Cl)c3)cn2)ccc1=O [Compound 163]; 240
Cn1cc(C(=O)Nc2ccc(Cc3cccc(Cl)c3)cn2)cnc1=O [Compound 652]; 86
Cn1nc(C(=O)Nc2ccc(Cc3cccc(F)c3)cn2)ccc1=O [Example 45]; 430

Now, please, on to the next compound.
Query :: Which measured IC50 belongs to Cn1cc(NCc2ccc(Cc3cccc(F)c3)cn2)ccc1=O [Compound 352] , tested on human SCD5 (Homo sapiens, UniProt Q86SK9)?
Result :: 35500

Origin of the recorded values: patent US20230078764A1
